For each entry below, report its Absolute IC50 value.
# tgt: T1, FPN1-GFP (human, UniProt Q9NP59 1-571, A GFP reporter is fused to the C terminus of FPN1. Its letters are not given, so it is left out.)
# T1 sequence: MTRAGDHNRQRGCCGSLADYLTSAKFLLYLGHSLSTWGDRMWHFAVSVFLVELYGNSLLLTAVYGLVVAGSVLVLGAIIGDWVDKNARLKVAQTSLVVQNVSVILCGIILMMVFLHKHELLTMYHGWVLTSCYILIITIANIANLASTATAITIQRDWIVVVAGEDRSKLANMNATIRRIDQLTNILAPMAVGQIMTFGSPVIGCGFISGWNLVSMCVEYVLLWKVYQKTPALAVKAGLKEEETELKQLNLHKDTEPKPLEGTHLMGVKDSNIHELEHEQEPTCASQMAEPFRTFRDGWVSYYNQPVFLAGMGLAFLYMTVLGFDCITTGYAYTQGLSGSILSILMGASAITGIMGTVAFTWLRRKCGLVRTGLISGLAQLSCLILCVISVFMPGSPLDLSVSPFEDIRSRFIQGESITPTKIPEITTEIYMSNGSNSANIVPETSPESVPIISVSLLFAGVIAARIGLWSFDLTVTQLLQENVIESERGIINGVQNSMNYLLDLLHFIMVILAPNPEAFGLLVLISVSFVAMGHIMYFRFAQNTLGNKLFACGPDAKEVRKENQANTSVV
# experiment-notes: cell-based or functional assay
Answers are plain numbers, in nM.

{"binder": "Mab 3D8 (antibody, human IgG4 S228P, kappa, F234A L235A, V domains shown) VH: QVQLVQSGAEVKKPGSSVKVSCKASGYAFTSFLIEWVRQAPGQGLEWMGTSNPRTGGTKYKEKFRGRVTITADKSTSTAYMELSSLRSEDTAVYYCAREFFDYWGQGTTVTVSS VL: DIQMTQSPSSLSASVGDRVTITCRASKSISKYTAWYQQKPGKAPKLLIYAGSKLHSGVPSRFSGSGSGTDFTLTISSLQPEDFATYYCQQHNEYPYTFGGGTKVEIKR", "unit-name": "nM", "Absolute IC50": 13.7}
{"binder": "Mab Combi11 (antibody, human IgG4 S228P, kappa, F234A L235A, V domains shown) VH: QVQLVQSGAEVKKPGSSVKVSCKASGYAFTSFLIEWVRQAPGQGLEWMGTSNPRTGRTKYKSKFRGRVTITADKSTSTAYMELSSLRSEDTAVYYCAREFFDYWGQGTTVTVSS VL: DIQMTQSPSSLSASVGDRVTITCRASKSISKYTAWYQQKPGKAPKLLIYAGSKRHWGVPSRFSGSGSGTDFTLTISSLQPEDFATYYCQQHNEYPYTFGGGTKVEIKR", "unit-name": "nM", "Absolute IC50": 3.8}

Let us examine a further case.
// query Fill in the blank: the reported Absolute IC50 of Mab 4A10-3 (antibody, human IgG4 S228P, kappa, F234A L235A, V domains shown) VH: QVQLVQSGAEVKKPGSSVKVSCKASGYAFTSFLIEWVRQAPGQGLEWMGTSNPRTGGRKYKEKFRGRVTITADKSTSTAYMELSSLRSEDTAVYYCAREFFDYWGQGTTVTVSS VL: DIQMTQSPSSLSASVGDRVTITCRASKSISKYTAWYQQKPGKAPKLLIYAGSKLHWGVPSRFSGSGSGTDFTLTISSLQPEDFATYYCQQHNEYPYTFGGGTKVEIKR is ____.
// result 5.7
